Hey, just so you know, these numbers are from PubChem BioAssay (NCATS).

Assay: Primary qHTS for inhibitors of MERS-S pseudo-typed particle cell entry (AID 1479149); note: potency is the fitted concentration of half-maximal effect; nearly all actives have a fitted effect of over 60% in size
Details: MERS-S pseudotyped particle entry, luciferase; series mostly up to 57.1 µM
Inconclusive results are not listed. The source made the active and inactive calls. Calls come from the whole dose curve.

# Molecule, Potency
measured = [
    ("C[n+]1c2cc(N)ccc2cc2ccc(N)cc21 (tested in a mixture with another compound)", "7.94 µM (active)"),
    ("CN1[C@@H]2CC[C@H]1CC(OC(c1ccccc1)c1ccccc1)C2 (some centres undefined)", "14.1 µM (active)"),
    ("CC(=O)N1CCN(c2ccc(OC[C@H]3CO[C@](Cn4ccnc4)(c4ccc(Cl)cc4Cl)O3)cc2)CC1", "7.94 µM (active)"),
    ("CCCCCCNC(=O)n1cc(F)c(=O)[nH]c1=O", "5.01 µM (active)"),
]
